Measured on: T1, His-tagged CEACAM1 (human, UniProt P13688 35-428)
T1 construct: 45 kDa SPR analyte; also called CEACAM1-HIS; CEACAM1 analyte
T1 sequence: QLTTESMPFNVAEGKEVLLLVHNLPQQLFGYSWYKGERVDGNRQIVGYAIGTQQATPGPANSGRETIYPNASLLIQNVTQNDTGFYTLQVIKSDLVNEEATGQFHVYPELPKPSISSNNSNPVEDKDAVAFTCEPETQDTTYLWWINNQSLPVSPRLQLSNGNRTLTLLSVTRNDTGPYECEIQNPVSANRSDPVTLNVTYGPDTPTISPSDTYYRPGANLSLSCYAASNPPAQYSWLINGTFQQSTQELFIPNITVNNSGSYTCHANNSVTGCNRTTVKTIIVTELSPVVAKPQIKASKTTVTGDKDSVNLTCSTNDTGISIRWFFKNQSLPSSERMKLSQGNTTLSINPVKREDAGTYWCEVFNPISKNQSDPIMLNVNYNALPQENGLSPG
Measurement description: SPR single-cycle, supernatant IgG captured
// values below are reported relative KD to parent

- Binder: "VH1/CP08E01 (antibody, IgG4, V domains shown, IgG4 (S241P), kappa; also called Parent VH/CP08E01) VH: EVQLLESGGGLVQPGGSLRLSCAASGFIFSSHGMSWVRQAPGKGLEWVATISSGGTYTYYPDSVKGRFTISRDNSKNTLYLQMNSLKAEDTAMYYCARHDFDYDAAWFAYWGQGTLVTVSS VL: EIVLTQSPATLSLSPGERATLSCRANSAVSYMYWYQQKPGQAPRPWIYLTSNRATGVPARFSGSGSGTDYTLTISSLEPEDFAVYYCQQWTTFPPTFGQGTKLEIK"
  relative KD to parent: 3.7
- Binder: "CP09B02/Vκ8 S29A (antibody, IgG4, V domains shown, IgG4 (S241P), kappa) VH: EVQLLESGGGLVQPGGSLRLSCAASGFTFTSHAISWVRQAPGKGLEWVATISSGGTYTYYPDSVKGRFTISRDNSKNTLYLQMNSLKAEDTAMYYCARHDFDYDAAWFAYWGQGTLVTVSS VL: EIVLTQSPATLSLSPGERATLSCRANSAVSYMYWYQQKPGQAPRPWIYLTSNRATGVPARFSGSGSGTDYTLTISSLEPEDFAVYYCQQWSSNPPTFGQGTKLEIK"
  relative KD to parent: 1.6
- Binder: "CP09F03/Vκ8 S29A (antibody, IgG4, V domains shown, IgG4 (S241P), kappa) VH: EVQLLESGGGLVQPGGSLRLSCAASGFTFNNHGMSWVRQAPGKGLEWVATISSGGTYTYYPDSVKGRFTISRDNSKNTLYLQMNSLKAEDTAMYYCARHDFDYDAAWFAYWGQGTLVTVSS VL: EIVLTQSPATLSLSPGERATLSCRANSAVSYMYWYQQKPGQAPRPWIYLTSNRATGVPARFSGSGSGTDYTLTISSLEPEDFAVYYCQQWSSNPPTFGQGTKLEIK"
  relative KD to parent: 0.5
- Binder: "CP08A03/Vκ8 S29A (antibody, IgG4, V domains shown, IgG4 (S241P), kappa) VH: EVQLLESGGGLVQPGGSLRLSCAASGFIFNNHAISWVRQAPGKGLEWVATISSGGTYTYYPDSVKGRFTISRDNSKNTLYLQMNSLKAEDTAMYYCARHDFDYDAAWFAYWGQGTLVTVSS VL: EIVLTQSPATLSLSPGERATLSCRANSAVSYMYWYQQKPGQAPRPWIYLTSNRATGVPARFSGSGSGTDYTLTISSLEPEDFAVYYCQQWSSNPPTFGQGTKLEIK"
  relative KD to parent: 1.3
- Binder: "CP09B03/Vκ8 S29A (antibody, IgG4, V domains shown, IgG4 (S241P), kappa) VH: EVQLLESGGGLVQPGGSLRLSCAASGFTFNAHAISWVRQAPGKGLEWVATISSGGTYTYYPDSVKGRFTISRDNSKNTLYLQMNSLKAEDTAMYYCARHDFDYDAAWFAYWGQGTLVTVSS VL: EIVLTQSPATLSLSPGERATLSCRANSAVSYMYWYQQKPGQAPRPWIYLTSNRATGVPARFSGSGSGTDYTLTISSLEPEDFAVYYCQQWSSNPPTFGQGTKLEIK"
  relative KD to parent: 2.4
